# Test summary: in vivo
# Measurement parameters: mouse, iv, male ddY mice, i.v., 10 days, read-out: LD50 i.v. (95% Confidence Limit)
List of LD50 at 240 h values.
Reply numerically in mg/kg, unit not repeated.

CCn1cc(C(=O)O)c(=O)c2cc(F)c(N3CCNC(C)C3)cc21 (centres unmarked) : 348

Exercise: Look at this molecule and give its reported LD50 at 240 h. CCn1cc(C(=O)O)c(=O)c2cc(F)c(N3CCNC(C)C3)c(F)c21 (centres unmarked)
Solution: 246

---

Record set of MIC for target or system Salmonella typhi 901.
Reply numerically in µg/mL, unit not repeated.

CCn1cc(C(=O)O)c(=O)c2cc(F)c(N3CCNCC3)cc21 [Reference Drug, norfloxacin, reference compound] : 0.025
CCn1cc(C(=O)O)c(=O)c2cc(F)c(N3CCNC(C)C3)cc21 (centres unmarked) [Example 1] : 0.05
CC1CN(c2c(F)cc3c(=O)c(C(=O)O)cn(CCF)c3c2F)CCN1 (centres unmarked) [Example 16] : 0.1

Exercise: Look at this compound and give its reported MIC. CCn1cc(C(=O)O)c(=O)c2cc(F)c(N3CCNC(C)C3)c(F)c21 (centres unmarked) [Example 4]
Solution: 0.0125

Exercise: Look at this compound and give its reported MIC. CCn1cc(C(=O)O)c(=O)c2cc(F)c(N3CC(C)NC(C)C3)c(F)c21 (centres unmarked) [Example 20]
Solution: 0.1

---

List of dose excreted at 24 h values.
# Test summary: Urinary excretion in rats after oral dosing (bioassay with Escherichia coli NIHJ-JC-2)
# Assay type: in vivo, SD strain)
# Measurement parameters: rat, male SD rats, 20 mg/Kg per os, fasted 24 hr, urine 0-24 hr, read-out: Rate of Urinary Excretion 0-24 (hr)
Entry format: amount then unit.

CC1CN(c2c(F)cc3c(=O)c(C(=O)O)cn(CCF)c3c2F)CCN1 (stereo not drawn) : 41%
CCn1cc(C(=O)O)c(=O)c2cc(F)c(N3CCNC(C)C3)c(F)c21 (stereo not drawn) : 75%

Query compound follows.
Exercise: Look at this compound and give its reported dose excreted at 24 h. CCn1cc(C(=O)O)c(=O)c2cc(F)c(N3CCNC(C)C3)cc21 (stereo not drawn)
Solution: 30%

---

List of concentration at 24 h values.
# Test summary: Urinary excretion in rats after oral dosing (bioassay with Escherichia coli NIHJ-JC-2)
# Type: in vivo, SD strain)
# Measurement parameters: rat, male SD rats, 20 mg/Kg per os, fasted 24 hr, urine 6-24 hr, read-out: Drug Concentration in Urine 6-24 (hr)
Reply numerically in ng/mL, unit not repeated.

CCn1cc(C(=O)O)c(=O)c2cc(F)c(N3CCNC(C)C3)c(F)c21 (stereo not drawn) [Example 4] : 87000
CC1CN(c2c(F)cc3c(=O)c(C(=O)O)cn(CCF)c3c2F)CCN1 (stereo not drawn) [Example 16] : 46000

Query compound follows.
Exercise: Look at this compound and give its reported concentration at 24 h. CCn1cc(C(=O)O)c(=O)c2cc(F)c(N3CCNC(C)C3)cc21 (stereo not drawn) [Example 1]
Solution: 28000
